- method.summary: Plasma stability assay
- Assay type: in vitro ADME, human
- conditions: human, 10 μM
Numbered stars: 1 amine (or outer) side, 2 acyl side, 3 side chain; on linkers, the order of the positions; unused ones are H or OH. Bridge positions count the residues as written; N and C are the ends. Square brackets hold non-standard residues; d marks the D form. Peptide text beside a SMILES is read from it. * marks the point of attachment. Piperazine(2S-CO,4-Me) = CN1CCN[C@H](C(=O)O)C1; NH(1,3-benzodioxol-5-yl) = c1cc2c(cc1N*)OCO2; Phe(3-Me) = Cc1cccc(C[C@H](N)C(=O)O)c1; NH(4-Cl-2-F-phenyl) = Fc1cc(Cl)ccc1N*; Pro(4R-Me) = C[C@H]1CN[C@H](C(=O)O)C1; CO = O=C([*:1])[*:2]
attribute.measured: Human (h)
Report as a plain number; the unit h is understood.

Prompt: Entry Cc1cccc(C[C@H](NC(=O)Nc2ccc(Cl)cc2F)C(=O)N[C@H]2COC(=O)[C@@H]3C[C@@H](C)CN3C(=O)[C@H](C)NC(=O)[C@@H]3CN(C)CCN3C(=O)[C@@H]3CCCN3C2=O)c1 [Compound 13] ({NH(4-Cl-2-F-phenyl)-CO}-[Phe(3-Me)]SP[Piperazine(2S-CO,4-Me)]A[Pro(4R-Me)]; ester 2-C) : reported Human = ?
Completion: 67.3

Prompt: Human for Cc1cccc(C[C@H](NC(=O)Nc2ccc3c(c2)OCO3)C(=O)N[C@H]2COC(=O)[C@@H]3C[C@@H](C)CN3C(=O)[C@H](C)NC(=O)[C@@H]3CN(C)CCN3C(=O)[C@@H]3CCCN3C2=O)c1 [Compound 17] ({NH(1,3-benzodioxol-5-yl)-CO}-[Phe(3-Me)]SP[Piperazine(2S-CO,4-Me)]A[Pro(4R-Me)]; ester 2-C) ?
Completion: 51.18
